- target-desc: UGT1A1 (Homo sapiens, UniProt P22309)
- Sequence (P22309 26-533): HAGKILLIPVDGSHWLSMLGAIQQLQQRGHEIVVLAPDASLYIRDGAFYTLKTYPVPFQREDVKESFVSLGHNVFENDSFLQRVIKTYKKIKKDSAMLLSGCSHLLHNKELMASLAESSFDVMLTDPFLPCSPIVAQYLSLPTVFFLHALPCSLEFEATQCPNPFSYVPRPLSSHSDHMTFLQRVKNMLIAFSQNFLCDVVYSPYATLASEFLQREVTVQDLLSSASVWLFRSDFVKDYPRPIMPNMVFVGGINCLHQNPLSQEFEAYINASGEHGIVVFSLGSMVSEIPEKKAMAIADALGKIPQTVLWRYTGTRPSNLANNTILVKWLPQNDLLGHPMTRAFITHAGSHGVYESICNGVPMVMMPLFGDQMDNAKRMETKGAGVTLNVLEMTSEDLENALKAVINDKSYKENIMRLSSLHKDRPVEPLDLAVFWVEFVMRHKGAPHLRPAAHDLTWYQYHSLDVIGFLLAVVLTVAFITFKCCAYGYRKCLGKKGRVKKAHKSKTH
- assay-details: Glucuronidation kinetics by expressed UGT1A1
- conditions-used: human, recombinant UGT1A1, pH 7.4
quantity: microsomal CLint (µL/min/mg)
Write down the numeric answer in µL/min/mg and omit the unit.

Form field: reported microsomal CLint of O=C(/C=C/c1ccc(O)cc1)CC(=O)/C=C/c1ccc(O)cc1 [BDMC, Bisdemethoxycurcumin] 235
